measurement-description: Cytotoxicity against human MRC5 cells
Type: toxicity, cell-based
property: CC50

Task: Let me know recorded CC50 for OCc1cccc(-c2ccc(SCc3ccc(-n4cncn4)cc3)nc2)c1 , thanks.
Output: > 40 µM

Task: Let me know recorded CC50 for Nc1ncc(-c2ccc(CSc3ccc(-c4ccc(CO)cc4)cn3)cc2)cn1 , thanks.
Output: > 20 µM

Task: Let me know recorded CC50 for c1ccc2cc(-c3ccc(SCc4ccc(-n5cncn5)cc4)cc3)ncc2c1 , thanks.
Output: > 40 µM

Task: Let me know recorded CC50 for OCc1ccc(-c2ccc(SCc3ccc(-n4cncn4)cc3)nc2)cc1 , thanks.
Output: > 40 µM

Task: Let me know recorded CC50 for Cn1cc(-c2ccc(CSc3ccc(-c4ccc5ccccc5c4)cn3)cc2)cn1 , thanks.
Output: > 40 µM

Task: Let me know recorded CC50 for CCOc1noc2cc(OCCC3CCN(c4ccc(C)nn4)CC3)ccc12 , thanks.
Output: > 20 µM

Task: Let me know recorded CC50 for c1ccc2cc(-c3ccc(SCc4ccc(-n5cncn5)cc4)nc3)ccc2c1 , thanks.
Output: > 40 µM

---

measurement-description: Cytotoxicity against Chinese hamster CHO cells
Kindly state CC50 for each of the entries shown.
Return type: number; implicit unit µM.

Task: Let me know recorded CC50 for c1ccc2cc(-c3ccc(SCc4ccc(-n5cncn5)cc4)nc3)ccc2c1 , thanks.
Output: 43.2

Task: Let me know recorded CC50 for Nc1ncc(-c2ccc(CSc3ccc(-c4ccc(CO)cc4)cn3)cc2)cn1 , thanks.
Output: 36.9

Task: Let me know recorded CC50 for c1ccc2cc(-c3ccc(SCc4ccc(-n5cncn5)cc4)cc3)ncc2c1 , thanks.
Output: 31.3

Task: Let me know recorded CC50 for O=C1NC(SCc2ccc(-n3cncn3)cc2)=N/C1=C\c1c[nH]c2ccccc12 , thanks.
Output: 33.6

---

measurement-description: Selectivity index, ratio of CC50 for cytotoxicity against human MRC5 cells to EC50 for antiviral activity against Echovirus 30 strain UVE/E-30/2013/FR/4-MRS2013 infected in human MRC5 cells
Format: toxicity, cell-based
test-conditions: read-out: Selectivity Index
property: selectivity ratio

Task: Let me know recorded selectivity ratio for c1ccc2cc(-c3ccc(SCc4ccc(-n5cncn5)cc4)cc3)ncc2c1 , thanks.
Output: > 100

Task: Let me know recorded selectivity ratio for c1ccc2cc(-c3ccc(SCc4ccc(-n5cncn5)cc4)nc3)ccc2c1 , thanks.
Output: > 100

---

measurement-description: Cytotoxicity against human RD cells
Format: toxicity, cell-based
property: CC50 (µM)
Return type: number; implicit unit µM.

Task: Let me know recorded CC50 for c1ccc2cc(-c3ccc(SCc4ccc(-n5cncn5)cc4)cc3)ncc2c1 , thanks.
Output: 30.5

Task: Let me know recorded CC50 for c1ccc2cc(-c3ccc(SCc4ccc(-n5cncn5)cc4)nc3)ccc2c1 , thanks.
Output: 23.5

Task: Let me know recorded CC50 for Nc1ncc(-c2ccc(CSc3ccc(-c4ccc(CO)cc4)cn3)cc2)cn1 , thanks.
Output: 44.7

Task: Let me know recorded CC50 for O=C1NC(SCc2ccc(-n3cncn3)cc2)=N/C1=C\c1c[nH]c2ccccc12 , thanks.
Output: 96.3

---

Kindly state pEC50 for each of the entries shown.
System: Coxsackievirus
measurement-description: Antiviral activity against Coxsackievirus A24 UVE/CV-A24/2010/LA/HFMK14 infected in human MRC5 cells assessed as […]
Type: functional, organism-based
test-conditions: UVE/CV-A24/2010/LA/HFMK14, MRC5
In simple prose, pEC50 is minus the logarithm base ten of a concentration in moles per litre.

Task: Let me know recorded pEC50 for c1ccc2cc(-c3ccc(SCc4ccc(-n5cncn5)cc4)cc3)ncc2c1 , thanks.
Output: 5.91

Task: Let me know recorded pEC50 for OCc1ccc(-c2ccc(SCc3ccc(-n4cncn4)cc3)nc2)cc1 , thanks.
Output: 4.63

Task: Let me know recorded pEC50 for c1ccc2cc(-c3ccc(SCc4ccc(-n5cncn5)cc4)nc3)ccc2c1 , thanks.
Output: 6.00
